meta.source: paper PMC8763243

# System: MCF-7 cells
# PROTOCOL DETAILS: WST-1 assay, cytotoxicity in tumorigenic cells
# Assay type: cell-based, human
# REPORTED CONDITIONS: 50 uM, relative to control, S8
PROPERTY LABEL: Fold (mean)
Returns: the value as a bare number; no unit string appended.

Please review the entries below; each comes with its answer.
# COMPOUND, MEASURED VALUE
data = [
    ("Cc1ccc(C(=O)Nc2ccc(S(=O)(=O)O)c3cc(S(=O)(=O)O)cc(S(=O)(=O)O)c23)cc1NC(=O)c1cccc(NC(=O)Nc2cccc(C(=O)Nc3cc(C(=O)Nc4ccc(S(=O)(=O)O)c5cc(S(=O)(=O)O)cc(S(=O)(=O)O)c45)ccc3C)c2)c1 [suramin]", 0.86),
    ("O=C(Nc1ccc(C(=O)Nc2cc(S(=O)(=O)O)cc3cc(S(=O)(=O)O)cc(S(=O)(=O)O)c23)s1)Nc1ccc(C(=O)Nc2cc(S(=O)(=O)O)cc3cc(S(=O)(=O)O)cc(S(=O)(=O)O)c23)s1 [Compound 21]", 0.96),
    ("O=C(Nc1ccc(C(=O)Nc2ccc(C(=O)Nc3cc(S(=O)(=O)O)cc4cc(S(=O)(=O)O)cc(S(=O)(=O)O)c34)cc2)cc1)Nc1ccc(C(=O)Nc2ccc(C(=O)Nc3cc(S(=O)(=O)O)cc4cc(S(=O)(=O)O)cc(S(=O)(=O)O)c34)cc2)cc1 [Compound 18]", 0.98),
]

We now examine a further compound.
Task: Quick one: Fold (mean) of O=C(Nc1ccc(C(=O)Nc2cc(S(=O)(=O)[O-])cc3cc(S(=O)(=O)[O-])cc(S(=O)(=O)[O-])c23)cc1)Nc1ccc(C(=O)Nc2cc(S(=O)(=O)[O-])cc3cc(S(=O)(=O)[O-])cc(S(=O)(=O)[O-])c23)cc1.[Na+].[Na+].[Na+].[Na+].[Na+].[Na+] [Compound 15] ?
Output: 0.84

* * *

# Test system: MCF-7 cells
# PROTOCOL DETAILS: WST-1 assay, cytotoxicity in tumorigenic cells
# Format: cell-based, human
# REPORTED CONDITIONS: 100 uM, S8
Reported Mean (Blank 450) is given for each of the following molecules.
Returns: the value as a bare number; no unit string appended.

# MOLECULE, TARGET SYSTEM, MEASURED VALUE
measured = [
    ("O=C(Nc1ccc(C(=O)Nc2ccc(C(=O)Nc3cc(S(=O)(=O)O)cc4cc(S(=O)(=O)O)cc(S(=O)(=O)O)c34)cc2)cc1)Nc1ccc(C(=O)Nc2ccc(C(=O)Nc3cc(S(=O)(=O)O)cc4cc(S(=O)(=O)O)cc(S(=O)(=O)O)c34)cc2)cc1 [Compound 18]", "MCF-7 cells", 1.057),
    ("Cc1ccc(C(=O)Nc2ccc(S(=O)(=O)O)c3cc(S(=O)(=O)O)cc(S(=O)(=O)O)c23)cc1NC(=O)c1cccc(NC(=O)Nc2cccc(C(=O)Nc3cc(C(=O)Nc4ccc(S(=O)(=O)O)c5cc(S(=O)(=O)O)cc(S(=O)(=O)O)c45)ccc3C)c2)c1 [suramin]", "MCF-7 cells", 0.817),
    ("O=C(Nc1ccc(C(=O)Nc2cccc3cc(S(=O)(=O)O)ccc23)cc1)Nc1ccc(C(=O)Nc2cccc3cc(S(=O)(=O)O)ccc23)cc1 [Compound 14]", "MCF-7 cells", 0.198),
    ("O=C(Nc1ccc(C(=O)Nc2cc(S(=O)(=O)O)cc3cc(S(=O)(=O)O)cc(S(=O)(=O)O)c23)s1)Nc1ccc(C(=O)Nc2cc(S(=O)(=O)O)cc3cc(S(=O)(=O)O)cc(S(=O)(=O)O)c23)s1 [Compound 21]", "MCF-7 cells", 1.021),
    ("O=C(Nc1ccc(C(=O)Nc2cc(S(=O)(=O)[O-])cc3cc(S(=O)(=O)[O-])cc(S(=O)(=O)[O-])c23)cc1)Nc1ccc(C(=O)Nc2cc(S(=O)(=O)[O-])cc3cc(S(=O)(=O)[O-])cc(S(=O)(=O)[O-])c23)cc1.[Na+].[Na+].[Na+].[Na+].[Na+].[Na+] [Compound 15]", "MCF-7 cells", 0.880),
]

We now examine a further molecule.
Task: Look up Mean (Blank 450) with MCF-7 cells for this molecule: O=C(Nc1ccc(C(=O)Nc2ccc(C(=O)Nc3cccc4cc(S(=O)(=O)O)ccc34)cc2)cc1)Nc1ccc(C(=O)Nc2ccc(C(=O)Nc3cccc4cc(S(=O)(=O)O)ccc34)cc2)cc1 [Compound 17]
Output: 0.208
